Provenance of the data: PubChem BioAssay (Tox21)

# TEST SYSTEM: 5-hydroxytryptamine receptor 2A (Homo sapiens)
# PROTOCOL TEXT: 5-hydroxytryptamine receptor 2A (HTR2A) small molecule antagonists, cell-based qHTS assay (AID 1963586); also: nearly all actives have a fitted effect of over 45% in size
# CONDITION DESCRIPTION: HTR2A-CHO cells, DOI-induced calcium flux, fluorescence; series mostly up to 61.5 µM
Inconclusive results are not listed. Calls of active or inactive are those of the source. Calls follow the shape of the full dose curve.
# valid calls are 1 (yes) (active), 0 (no) (inactive); nothing else

Q: Could you kindly confirm the outcome this assay logged for CCCCC/C=C\C/C=C\C/C=C\C/C=C\CCCC(=O)NCC(=O)O ?
Ans: 1 (yes)

Q: Could you kindly confirm the outcome this assay logged for CC(Cc1ccccc1)NCCn1cnc2c1c(=O)n(C)c(=O)n2C (configuration not stated) ?
Ans: 0 (no)

Q: Could you kindly confirm the outcome this assay logged for CN(C)CCc1c[nH]c2ccccc12 ?
Ans: 1 (yes)

Q: Could you kindly confirm the outcome this assay logged for CC(C)C1CCC(Cc2ccc(Cl)cc2)C1(O)Cn1cncn1 (configuration not stated) ?
Ans: 1 (yes)

Q: Could you kindly confirm the outcome this assay logged for OCC(c1ccc(Cl)cc1)c1ccc(Cl)cc1 ?
Ans: 1 (yes)

Q: Could you kindly confirm the outcome this assay logged for C[N+]1(CCC(C(N)=O)(c2ccccc2)c2ccccc2)CCCCC1 ?
Ans: 0 (no)

Q: Could you kindly confirm the outcome this assay logged for CCCCCCCCCC(=O)O[C@H]1CC[C@H]2[C@@H]3CCC4=CC(=O)CC[C@@H]4[C@H]3CC[C@]12C ?
Ans: 0 (no)

Q: Could you kindly confirm the outcome this assay logged for Nc1ccc2c(c1)Cc1ccccc1-2 ?
Ans: 0 (no)

Q: Could you kindly confirm the outcome this assay logged for CCC(C)(C)c1cc(-n2nc3ccccc3n2)c(O)c(C(C)(C)CC)c1 ?
Ans: 0 (no)

Q: Could you kindly confirm the outcome this assay logged for Cc1ccc([N+](=O)[O-])[c]2c1[O][Hg]2 ?
Ans: 1 (yes)

Q: Could you kindly confirm the outcome this assay logged for CN(C1CCCCC1)C1CCCCC1 ?
Ans: 0 (no)

Q: Could you kindly confirm the outcome this assay logged for CCC(COC(=O)c1cc(OC)c(OC)c(OC)c1)(c1ccccc1)N(C)C (configuration not stated) ?
Ans: 0 (no)
